- experimental_target: T1, memapsin 2 (Homo sapiens, UniProt P56817)
- T1 construct: pET-11 vector-derived residues 1-15 of promemapsin 2-T1 (N, cleaved yes); made in house; host or cells: E. coli
- T1 sequence (P56817 41-454 limits assumed): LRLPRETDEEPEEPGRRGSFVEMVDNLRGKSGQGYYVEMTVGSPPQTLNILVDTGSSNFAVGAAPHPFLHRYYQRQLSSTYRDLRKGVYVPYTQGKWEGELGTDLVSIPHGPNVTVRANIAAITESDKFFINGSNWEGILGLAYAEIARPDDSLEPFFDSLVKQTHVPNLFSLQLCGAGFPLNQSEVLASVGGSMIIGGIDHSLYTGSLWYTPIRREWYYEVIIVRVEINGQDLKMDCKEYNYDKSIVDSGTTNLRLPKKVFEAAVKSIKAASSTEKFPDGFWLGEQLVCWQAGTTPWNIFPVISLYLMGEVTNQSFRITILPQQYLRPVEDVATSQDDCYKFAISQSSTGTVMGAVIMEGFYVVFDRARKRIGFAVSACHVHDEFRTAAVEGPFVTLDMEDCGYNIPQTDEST
- test: Inhibition of memapsin 2 proteolytic activity, fluorogenic substrate FS-2
- Assay type: biochemical
- experimental_parameters: ratio of initial cleavage velocities of FS-2 with/without compound; enzyme and inhibitor concentrations equal (e.g., about 80 nM, 100 nM)
Kindly return yes if reported Vi/Vo is no lower than 0.6; return no if it is lower.

CSCC[C@H](NC(=O)[C@@H](NC(=O)OC(C)(C)C)C(C)C)C(=O)N[C@@H](CC(C)C)[C@@H](O)C[C@H](C)NC(=O)[C@@H](NC(=O)OCc1ccccc1)C(C)C [MMI-168]    yes
CSCC[C@H](NC(=O)[C@@H](NC(=O)OC(C)(C)C)C(C)C)C(=O)N[C@@H](CC(C)C)[C@@H](O)C[C@@H](CO)C(=O)N[C@H](C(=O)NCc1ccccc1)C(C)C [MMI-078]    yes
CSCC[C@H](NC(=O)[C@@H](NC(=O)OC(C)(C)C)C(C)C)C(=O)N[C@@H](CC(C)C)[C@@H](O)C[C@@H](C)C(=O)N[C@@H](C(=O)NCc1ccccc1)[C@@H](C)O [MMI-072]    yes
CSCC[C@H](NC(=O)c1cccc(O)c1C)C(=O)N[C@@H](CC(C)C)[C@@H](O)C[C@@H](C)C(=O)N[C@@H](CC(C)C)C(=O)NCc1ccccc1 [MMI-120]    yes
CC(C)C[C@H](NC(=O)[C@H](C)C[C@H](O)[C@H](CC(C)C)NC(=O)[C@H](CS(C)(=O)=O)NC(=O)OCc1ccccn1)C(=O)NCc1ccccc1 [MMI-126]    yes
Cc1c(O)cccc1C(=O)N[C@H](C(=O)N[C@@H](CCS(C)(=O)=O)C(=O)N[C@@H](CC(C)C)[C@@H](O)C[C@@H](C)C(=O)N[C@@H](CC(C)C)C(=O)NCc1ccccc1)C(C)C [MMI-122]    yes
CCCCNC(=O)[C@@H](NC(=O)[C@H](C)C[C@H](O)[C@H](CC1CCCC1)NC(=O)[C@H](CCSC)NC(=O)OCn1nc(C)cc1C)C(C)C [MMI-172]    yes
CSCC[C@H](NC(=O)[C@@H](NC(=O)OC(C)(C)C)C(C)C)C(=O)N[C@@H](CC(C)C)[C@@H](O)C[C@@H](C)C(=O)N[C@@H](C(C)C)C1CC(Cc2ccccc2)CCO1 (stereo partly shown) [MMI-146-A]    yes
CSCC[C@H](NC(=O)[C@@H](NC(=O)OC(C)(C)C)C(C)C)C(=O)N[C@@H](CC(C)C)[C@@H](O)C[C@@H](C)C(=O)N[C@@H](C(C)C)C1CC(Cc2ccccc2)CCO1 (stereo partly shown) [MMI-147]    yes
CSCC[C@H](NC(=O)NCc1ccco1)C(=O)N[C@@H](CC(C)C)[C@@H](O)C[C@@H](C)C(=O)N[C@H](C(=O)NCc1ccccc1)C(C)C [MMI-117]    no
CC(C)C[C@H](NC(=O)[C@@H]1CC(=O)NCCCCOC(=O)N[C@@H](C(C)C)C(=O)N1)[C@@H](O)C[C@@H](C)C(=O)N[C@H](C(=O)NCc1ccccc1)C(C)C [MMI-150]    yes
CC(C)C[C@H](NC(=O)[C@H](CCS(C)(=O)=O)NC(=O)[C@@H](NC(=O)OC(C)(C)C)C(C)C)[C@@H](O)C[C@@H](C)C(=O)N[C@@H](C(=O)NCc1ccccc1)[C@@H](C)O [MMI-073]    no
CC(C)C[C@H](NC(=O)[C@H](CCS(C)(=O)=O)NC(=O)OCc1ccco1)[C@@H](O)C[C@@H](C)C(=O)N[C@H](C(=O)NCc1ccccc1)C(C)C [MMI-136]    yes
C=CCNC(=O)C[C@H](NC(=O)[C@@H](NC(=O)OCC=C)C(C)C)C(=O)N[C@@H](CC(C)C)[C@@H](O)C[C@@H](C)C(=O)N[C@H](C(=O)NCc1ccccc1)C(C)C [MMI-148]    no
